Ref: paper PMC11831592

- method notes: Pharmacokinetic study in Sprague-Dawley rats
- Assay type: in vivo
- recorded conditions: male, plasma, rat, 10 mg/kg intravenous
readout: AUC(0-inf) at 24 h (ng·h/mL)
Form entry: value (ng·h/mL) — number only.

Prompt: Any idea what its AUC(0-inf) at 24 h is? The compound is `O=C(/C=C/c1ccc(CNC[C@H]2CN(c3ccc(N4CCOCC4)c(F)c3)C(=O)O2)cc1)NO`
Completion: 2280

* * *

- method notes: Pharmacokinetic study in Sprague-Dawley rats
- Type: in vivo
- recorded conditions: male, plasma, rat, 10 mg/kg intravenous
readout: clearance at 24 h

Prompt: Consider the compound `O=C(/C=C/c1ccc(CNC[C@H]2CN(c3ccc(N4CCOCC4)c(F)c3)C(=O)O2)cc1)NO` and give its measured clearance at 24 h.
Completion: 78 mL/min/kg
